PROTOCOL_DESCRIPTION: First acid dissociation constant of the added acid
Assay type: physicochemical
STUDY_CONDITIONS: in water at 25°C
Experimental: The organic acid preferably has a first acid dissociation constant of preferably 4.0 to 5.0, more preferably 4.1 to 4.8, and further preferably 4.2 to 4.5. […] In the present invention, the term "first acid dissociation constant" indicates an acid dissociation constant in water at 25°C and is a value measured, for example, by acid-base titration, absorption spectroscopy, or capillary electrophoresis.
Please respond with reported First acid dissociation constant (-) for every item in the list.
API doc: respond with a numeric literal and nothing else, no unit.

What does the record list as First acid dissociation constant (-) for "CC(=O)C(=O)O" ?
2.50

Same question, "O=C(O)CCCCC(=O)O" this time
4.42

Proceed to "CC(=O)CCC(=O)O"
4.44

Then this compound: "CCCCCCCCCCCCCCCCCCC(=O)O"
5.10
